Assignment: determine reported AC50 for the given compounds.
assayedTarget: Cytochrome P450 3A4 (Homo sapiens, UniProt P08684);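 also: CYP3A4 tested as one member of a cytochrome P450 panel screen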
Sequence (P08684 whole entry): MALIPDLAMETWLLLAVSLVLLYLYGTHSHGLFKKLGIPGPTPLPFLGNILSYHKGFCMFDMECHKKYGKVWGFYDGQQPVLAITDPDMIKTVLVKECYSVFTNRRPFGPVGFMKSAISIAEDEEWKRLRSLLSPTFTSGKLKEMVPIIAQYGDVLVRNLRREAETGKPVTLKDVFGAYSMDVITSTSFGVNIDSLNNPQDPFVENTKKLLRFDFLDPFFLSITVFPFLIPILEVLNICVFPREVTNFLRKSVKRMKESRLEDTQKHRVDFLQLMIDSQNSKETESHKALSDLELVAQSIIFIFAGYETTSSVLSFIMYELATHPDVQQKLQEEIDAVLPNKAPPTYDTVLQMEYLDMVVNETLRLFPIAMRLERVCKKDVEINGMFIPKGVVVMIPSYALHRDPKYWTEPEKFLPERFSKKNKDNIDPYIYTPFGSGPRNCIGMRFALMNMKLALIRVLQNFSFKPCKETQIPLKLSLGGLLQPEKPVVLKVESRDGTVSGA

Guide cases for AC50, answers given:
moleculeSmiles | AC50
CCN(CC)c1ccc(NC(=O)CSc2nnc3nc(C)cc(C)n23)cc1 | 39.8 µM (inconclusive)
O=S(=O)(c1ccccc1)N1CCC2(CC1)CN(c1ccncc1)C2 | 39.8 µM (inconclusive)
CC(C)CN(Cc1c(O)ccc2c3c(c(=O)oc12)CCC3)CC(C)C | 17.8 µM (inconclusive)
CCCn1cnc2c(SCc3ccc(Cl)cc3)nc(N)nc21 | 6.31 µM (inconclusive)
CSc1cccc(NC(=O)Nc2ccc(Cl)cc2)c1 | 14.1 µM (inconclusive)

*Q* # AC50 lookup, item O=C(COc1ccc2ccccc2c1)NNC(=O)Cc1cccc2ccccc12
*A* 14.1 µM (inconclusive)

* * *

assayedTarget: Heat shock factor protein 1 (Mus musculus)
Sequence (P38532 whole entry): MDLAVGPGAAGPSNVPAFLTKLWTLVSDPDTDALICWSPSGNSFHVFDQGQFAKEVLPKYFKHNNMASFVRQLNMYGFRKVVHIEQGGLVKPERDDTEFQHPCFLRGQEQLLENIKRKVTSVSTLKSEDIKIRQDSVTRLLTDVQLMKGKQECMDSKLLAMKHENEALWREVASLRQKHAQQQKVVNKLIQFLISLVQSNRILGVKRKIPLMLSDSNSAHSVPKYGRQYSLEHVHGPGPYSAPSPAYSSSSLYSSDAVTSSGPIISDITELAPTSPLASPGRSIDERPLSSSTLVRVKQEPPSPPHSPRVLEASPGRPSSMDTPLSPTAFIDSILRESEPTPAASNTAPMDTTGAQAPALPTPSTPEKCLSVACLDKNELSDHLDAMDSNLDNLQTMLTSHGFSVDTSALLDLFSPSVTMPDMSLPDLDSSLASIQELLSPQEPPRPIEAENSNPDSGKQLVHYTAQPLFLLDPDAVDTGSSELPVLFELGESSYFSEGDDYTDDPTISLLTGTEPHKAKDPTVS
experimentNotes: enhancement of HSF1-driven luciferase signal – cell-based, NIH3T3, luminescence, dose retest, confirmation (AID 435004);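 also: stress induced by proteasome inhibitor MG132 added 30 min after compound; luciferase reporter driven by HSF1 response element in NIH3T3 cells; actives raise luminescence as potentiators of the MG132 stress response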
Type: functional
Activity calls are given as the source filed them.
Entry note: the call must match one of t = active, f = inactive

Use these answered entries as a reference point.
molecule | labelValue
N#CCC(=O)Nc1ccc(C(=O)OCC(=O)Nc2ccccc2Sc2ccccc2)cc1 | f
COc1cccc(NC=C2C(=O)CC(C)(C)CC2=O)c1 | t
Cc1ccccc1/[N+]([O-])=C/c1cccs1 | f
COc1ccc(N2CCN(C(c3cccs3)C(C)NS(=O)(=O)c3ccccc3)CC2)cc1 (stereo not given) | f

With those in mind, consider the next molecule.
*Q* // return assay outcome for CC(C)C(C)N(Cc1ccc(C(=O)O)cc1)C(=O)c1ccc2ccccc2n1 (stereo not given)
*A* f

* * *

assayedTarget: Induced myeloid leukemia cell differentiation protein Mcl-1 (Homo sapiens)
Sequence (Q07820 whole entry): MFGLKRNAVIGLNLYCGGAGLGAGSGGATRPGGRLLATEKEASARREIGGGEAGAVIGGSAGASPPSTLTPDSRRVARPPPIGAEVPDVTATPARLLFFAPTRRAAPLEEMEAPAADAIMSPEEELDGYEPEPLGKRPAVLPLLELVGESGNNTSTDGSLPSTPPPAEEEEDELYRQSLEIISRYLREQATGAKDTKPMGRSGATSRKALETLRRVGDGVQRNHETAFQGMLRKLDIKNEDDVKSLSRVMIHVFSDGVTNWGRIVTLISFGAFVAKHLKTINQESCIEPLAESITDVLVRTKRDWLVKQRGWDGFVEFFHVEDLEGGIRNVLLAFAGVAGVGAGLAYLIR
Type: functional
Activity calls are given as the source filed them.
recordedEndpoint: IC50

Guide cases for IC50, answers given:
molecule | assayedTarget | IC50
CCC(=O)N(CC)C1=C(O)C(=O)c2ccccc2C1=O | Induced myeloid leukemia cell differentiation protein Mcl-1 (Homo sapiens) | 1.44 µM (active)
O=S(=O)(c1ccc2nc(-c3ccco3)c(-c3ccco3)nc2c1)N1CCOCC1 | Induced myeloid leukemia cell differentiation protein Mcl-1 (Homo sapiens) | 5.65 µM (active)

State recorded IC50 for all listed molecules.
1. CCOc1ccc(C(=O)Nc2cc(NC(=O)c3ccc(OCC)c(Cl)c3)cc(C(=O)O)c2)cc1Cl
2. Cc1ccc(N2CC(C(=O)Nc3ccc(N(C)C)cc3)CC2=O)cc1C (stereo unspecified)
3. O=C1N=C(NNc2ccccc2)S/C1=C\c1ccccc1
4. Oc1c(/C=N/c2ccccn2)sc2ccccc12

*A*
1: 14.3 µM (active); 2: 3.29 µM (not active); 3: 4.76 µM (not active); 4: 1.64 µM (active)

* * *

assayedTarget: Prothrombin (Homo sapiens)
experimentNotes: Thrombin 1536 HTS Dose Response Confirmation. [Related pubchem assays: 1046 (Thrombin 1536 HTS; hits were confirmed in this assay)]
Assay type: functional
Active and inactive are the calls of the source.
Assignment: determine reported IC50 for the given molecules.

Guide cases for IC50, answers given:
molecule | result
O=C(c1nc2ccccc2s1)N1CCN(c2ccccn2)CC1 | > 50 µM (not active)
CCc1ccc(N2CC(C(=O)Nc3ccccc3F)CC2=O)cc1 (configuration not stated) | > 50 µM (not active)
CC(=O)n1nc(-c2cccc(C)c2)nc1SCC(=O)Nc1ccccc1 | 0.731 µM (active)
O=C(c1ccc(-c2ccc([N+](=O)[O-])cc2)o1)N1CCCCC1 | > 50 µM (not active)

State recorded IC50 for all listed molecules.
1. COc1ccc(S(=O)(=O)NC(C)C(=O)Nc2cccc(C(C)=O)c2)cc1 (configuration not stated)
2. COC(=O)c1ccc(NC2CC(=O)N(c3ccccc3C)C2=O)cc1 (configuration not stated)
3. COc1cc(OC)cc(C(=O)n2cnnc2N)c1

*A*
1. > 50 µM (not active)
2. > 50 µM (not active)
3. 0.1 µM (active)
